molecular target: XIAP (Homo sapiens); construct: BIR3 domain; assay: BIR3 domain binding IC50 (assay format not stated)
Sequence (P98170 241-356 limits assumed): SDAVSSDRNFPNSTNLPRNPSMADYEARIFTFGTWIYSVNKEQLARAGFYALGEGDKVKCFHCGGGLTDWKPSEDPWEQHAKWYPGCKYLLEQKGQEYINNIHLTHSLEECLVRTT
pIC50: −log10 of the molar value.

# molecule, test system, pIC50
data = [
    ("CN[C@@H](C)C(=O)Nc1ccc(-c2c(C)nc3ccccn23)c(C#Cc2ccc3ncccc3c2)n1 [BI-82]", "XIAP (Homo sapiens)", 6.56),
]

* * *

molecular target: cIAP2 (Homo sapiens, UniProt Q13489); construct: BIR3 domain; assay: BIR3 domain binding IC50 (assay format not stated)
Sequence (Q13489 250-317 limits assumed): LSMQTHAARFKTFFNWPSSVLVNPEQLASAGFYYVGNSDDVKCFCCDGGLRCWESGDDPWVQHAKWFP
endpoint: IC50

# molecule, result
measured = [
    ("CN[C@@H](C)C(=O)Nc1ccc(-c2c(C)nc3ccccn23)c(C#Cc2ccc3ncccc3c2)n1 [BI-82]", "17.1 nM"),
]

Ref: paper PMC10762662
